Values were extracted from the supplement of paper PMC10567573.

B1: ZNF232 (parent)
chain: GKAYGWCSELIRHRRVHARKEPSH

- Variants of: B1
- Protocol details: protein stability index of a GFP-peptide fusion (GPS, HEK-293T) (PSI 1-6); higher = more stable;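 note: lentivirally expressed fusions sorted by FACS into six bins by GFP to DsRed ratio, PSI derived from sequencing read proportions per bin multiplied by bin number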
- Test context: c terminus: a fixed tail appended
Given measured protein stability index, output fulfilled if it is greater than or equal to 3 and not fulfilled if not.

Determine whether this variant has protein stability index no lower than 3: S8A
not fulfilled

Here is the next variant: A18N
not fulfilled

Cool, now S8Q
fulfilled

Also S8Y , if possible.
not fulfilled

Note, next up: K20W
not fulfilled

Record: A3P
not fulfilled

Field entry: Y4F
not fulfilled

Now the same for S23W
not fulfilled

Can you handle A18H next?
not fulfilled

Next variant up: R14T
not fulfilled

Check H13G too.
fulfilled

Same again, this time with W6M
fulfilled

// query: R12F
not fulfilled

Please give the result for L10P too.
fulfilled

Then R12S ?
fulfilled

Follow-up entry: R14D
not fulfilled

Next variant: L10M
fulfilled

Consider next the variant G5C in the same way.
not fulfilled

Now the variant H17K
fulfilled
